B1: EHMT1 (parent)
chain: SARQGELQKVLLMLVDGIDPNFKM

- Variants of: B1
- assay_text: protein stability index of a GFP-peptide fusion (GPS, HEK-293T) (PSI 1-6); higher = more stable;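 also: lentivirally expressed fusions sorted by FACS into six bins by GFP to DsRed ratio, PSI derived from sequencing read proportions per bin multiplied by bin number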
- cond: c terminus: a fixed tail appended
endpoint_name: protein stability index
Respond using a number only.

Examples from the recorded data:
S1C: 2.34
K9P: 1.95
N21G: 3.57
A2D: 1.61
Q8L: 3.28
G5Y: 1.92
L14Y: 1.76
V10D: 3.36
K23G: 1.19
S1H: 2.42

query: Name the reported protein stability index value associated with the variant I18N
result: 2.24

query: Can you check V15R next?
result: 1.65

query: Can you check I18S next?
result: 1.97

query: Can you check I18W next?
result: 2.54

query: Can you check L14E next?
result: 3.22

query: Can you check D19G next?
result: 2.8
